Rule: t for melting point not less than 200 °C, f for anything less.

>>> df
                                 smilesentry  cat
 0  CC(C)COc1ccccc1-c1nc(N)ncc1-c1ccc(=O)n(C(C)C)n1    f
 1  CC(C)CC(=O)Nc1ncc(-c2ccc(=O)n(C(C)C)n2)c(-c2ccccc2)n1    f
 2  Cc1cccc(C)c1-c1nc(N)ncc1-c1ccc(=O)n(C(C)C)n1    t
 3  CC(C)n1nc(-c2cnc(N)nc2-c2c(F)cccc2F)ccc1=O    t
 4  CC(C)n1nc(-c2cnc(NC(=O)c3ccc(Cl)cc3)nc2-c2ccccc2)ccc1=O    f
 5      Cn1nc(-c2cnc(N)nc2-c2ccccc2Br)ccc1=O    t
 6    COc1ccccc1-c1nc(N)ncc1-c1ccc(=O)n(C)n1    t
 7  COc1ccc(-c2nc(N(C)C)ncc2-c2ccc(=O)n(C)n2)cc1    f
 8  CC(C)n1nc(-c2cnc(N)nc2-c2ccc(OCCN(C)C)cc2)ccc1=O    f
 9  COc1ccccc1-c1nc(N)ncc1-c1ccc(=O)n(C(C)C)n1    f
10  COc1cccc(-c2nc(N)ncc2-c2ccc(=O)n(C(C)C)n2)c1    t
11  COCCOc1ccc(-c2nc(N)ncc2-c2ccc(=O)n(C(C)C)n2)cc1    f
12  COc1ccc(-c2nc(N)ncc2-c2ccc(=O)n(C)n2)cc1OC    t
13     Nc1ncc(-c2ccc(=O)[nH]n2)c(-c2cccs2)n1    t
14  CC(C)Oc1cccc(-c2nc(N)ncc2-c2ccc(=O)n(C(C)C)n2)c1    f
15  CC(C)n1nc(-c2cnc(N)nc2-c2ccccc2OCCN2CCOCC2)ccc1=O    f

====

# tgt: human A1 receptor (Homo sapiens, UniProt P30542)
# Sequence (P30542 whole entry): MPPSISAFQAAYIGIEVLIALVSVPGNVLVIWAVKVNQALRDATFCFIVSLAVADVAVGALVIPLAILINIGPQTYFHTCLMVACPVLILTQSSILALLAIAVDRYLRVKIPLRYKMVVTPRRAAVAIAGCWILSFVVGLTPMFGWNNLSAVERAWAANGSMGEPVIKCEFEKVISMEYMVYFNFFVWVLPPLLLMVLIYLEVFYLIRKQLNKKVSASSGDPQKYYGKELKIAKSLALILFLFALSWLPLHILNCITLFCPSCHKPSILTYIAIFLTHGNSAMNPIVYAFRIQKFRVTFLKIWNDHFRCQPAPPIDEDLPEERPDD
# testProtocol: Adenosine antagonistic activity, radioligand binding with [3H]DPCPX
# measurementConditions: [3H]DPCPX 4.5 nM
Label t when Ki is strictly below 8 nM; at or above that, label f.

In [3]: df
Out[3]:
                                smilesentry                                       tgt  cat
0  CC(=O)Nc1ncc(-c2ccc(=O)n(C(C)C)n2)c(-c2ccccc2)n1  human A1 receptor (Homo sapiens, UniProt P30542)    t
1     CC(C)n1nc(-c2cnc(N)nc2-c2ccco2)ccc1=O  human A1 receptor (Homo sapiens, UniProt P30542)    t
2  CC(C)n1nc(-c2c(F)nc(N)nc2-c2ccccc2)ccc1=O  human A1 receptor (Homo sapiens, UniProt P30542)    t
3    Nc1ncc(-c2ccc(=O)[nH]n2)c(-c2ccccc2)n1  human A1 receptor (Homo sapiens, UniProt P30542)    f
4       CCn1nc(-c2cnc(N)nc2-c2ccccc2)ccc1=O  human A1 receptor (Homo sapiens, UniProt P30542)    t
5  CC(C)n1nc(-c2cnc(NCc3ccccn3)nc2-c2ccccc2)ccc1=O  human A1 receptor (Homo sapiens, UniProt P30542)    f
6  COCCOc1ccc(-c2nc(N)ncc2-c2ccc(=O)n(C(C)C)n2)cc1  human A1 receptor (Homo sapiens, UniProt P30542)    t

====

attributeMeasured: melting point

>>> df
                                   molecule  attributemeasured    assayresult
0  CC(C)n1nc(-c2cnc(N(C(=O)c3ccc(C(F)(F)F)cc3)C(=O)c3ccc(C(F)(F)F)cc3)nc2-c2ccccc2)ccc1=O [Example 183]      melting point         159 °C
1  CC(C)n1nc(-c2c(OC3CCCCC3)nc(N)nc2-c2ccccc2)ccc1=O [Example 96]      melting point  173 to 175 °C
2  CC(C)n1nc(-c2c(OCc3ccccn3)nc(N)nc2-c2ccccc2)ccc1=O [Example 94]      melting point  177 to 178 °C
3  COCC(C)n1nc(-c2cnc(N)nc2-c2ccccc2)ccc1=O (centres unmarked) [Example 250]      melting point  180 to 181 °C
4  CC(C)n1nc(-c2c(NCc3ccco3)nc(N)nc2-c2ccccc2)ccc1=O [Example 124]      melting point  213 to 214 °C

====

attributeMeasured: melting point

In [3]: df
Out[3]:
                                   molecule      assayresult
0  CC(C)n1nc(-c2cnc(N)nc2-c2ccccc2C(F)(F)F)ccc1=O    160 to 161 °C
1  CC(C)n1nc(-c2c(-c3ccccc3)nc(N)nc2[S+](C)[O-])ccc1=O (centres unmarked)    225 to 227 °C
2  CC(C)n1nc(-c2c(-c3ccccc3)nc(N)nc2N2CCOCC2)ccc1=O    251 to 253 °C
3  COc1ccc(-c2nc(N)ncc2-c2ccc(=O)n(C(C)C)n2)cc1OC           167 °C
4  CC(C)n1nc(-c2cnc(N)nc2-c2ccc(C(F)(F)F)cc2)ccc1=O  209 to 210.5 °C

====

Reported melting point is given for each of the following compounds.
attributeMeasured: melting point (°C)

>>> print(df.to_string())
                                   compound  unitlabel  assayresult
0  Cn1nc(-c2cnc(N)nc2-c2ccc(O)cc2)ccc1=O (hydrate or solvate)         °C          250
1     Cn1nc(-c2cnc(N)nc2-c2cccc(F)c2)ccc1=O         °C        212.5
2  CC(C)Oc1ccc(-c2nc(N)ncc2-c2ccc(=O)n(C(C)C)n2)cc1         °C          164

====

attributeMeasured: melting point (°C)

                                 smilesentry  attributemeasured  unitlabel  operator  assayresult
 0  CC(C)n1nc(-c2cnc(N)nc2-c2cccc(OCCN3CCOCC3)c2)ccc1=O      melting point         °C         =           68
 1  CC(C)n1nc(-c2cnc(N)nc2-c2cccc(OCCF)c2)ccc1=O      melting point         °C         =          123
 2     CC(C)n1nc(-c2cnc(N)nc2-c2ccco2)ccc1=O      melting point         °C         =          215
 3  CC(C)n1nc(-c2cnc(N)nc2-c2ccc(OCCF)cc2)ccc1=O      melting point         °C         =          200
 4  CC(C)n1nc(-c2c(Nc3ccccc3)nc(N)nc2-c2ccc(F)cc2)ccc1=O      melting point         °C         >          250
 5         Cn1nc(-c2cnc(N)nc2-c2ccoc2)ccc1=O      melting point         °C         =          241
 6  CCCOc1cccc(-c2nc(N)ncc2-c2ccc(=O)n(C(C)C)n2)c1      melting point         °C         =          122
 7  CC(C)n1nc(-c2cnc(N)nc2-c2ccc(Cl)c(Cl)c2)ccc1=O      melting point         °C         =          176
 8  COc1ccc(-c2nc(N(C)C)ncc2-c2ccc(=O)n(C)n2)cc1F      melting point         °C         =          158
 9  CC(C)n1nc(-c2cnc(N)nc2-c2c(Cl)cccc2Cl)ccc1=O      melting point         °C         =          208
10  CCCCOc1ccccc1-c1nc(N)ncc1-c1ccc(=O)n(C(C)C)n1      melting point         °C         =          149
11    CC(C)n1nc(-c2cnc(N)nc2-c2ccncc2)ccc1=O      melting point         °C         =          219
12  COc1ccc(-c2nc(N)ncc2-c2ccc(=O)[nH]n2)cc1      melting point         °C         =          142
13  CCOc1ccc(-c2nc(N)ncc2-c2ccc(=O)n(C(C)C)n2)cc1      melting point         °C         =          204
14  CC(C)n1nc(-c2cnc(N)nc2-c2ccccc2OCCCF)ccc1=O      melting point         °C         =          200
15  COc1cccc(OC)c1-c1nc(N)ncc1-c1ccc(=O)n(C(C)C)n1      melting point         °C         =          260
16  CC(C)n1nc(-c2cnc(N(C(=O)c3ccc(Cl)cc3)C(=O)c3ccc(Cl)cc3)nc2-c2ccccc2)ccc1=O      melting point         °C         =          110

====

Reported Ki is given for each of the following compounds.
# tgt: human A2a receptor (Homo sapiens, UniProt P29274)
# Sequence (P29274 whole entry): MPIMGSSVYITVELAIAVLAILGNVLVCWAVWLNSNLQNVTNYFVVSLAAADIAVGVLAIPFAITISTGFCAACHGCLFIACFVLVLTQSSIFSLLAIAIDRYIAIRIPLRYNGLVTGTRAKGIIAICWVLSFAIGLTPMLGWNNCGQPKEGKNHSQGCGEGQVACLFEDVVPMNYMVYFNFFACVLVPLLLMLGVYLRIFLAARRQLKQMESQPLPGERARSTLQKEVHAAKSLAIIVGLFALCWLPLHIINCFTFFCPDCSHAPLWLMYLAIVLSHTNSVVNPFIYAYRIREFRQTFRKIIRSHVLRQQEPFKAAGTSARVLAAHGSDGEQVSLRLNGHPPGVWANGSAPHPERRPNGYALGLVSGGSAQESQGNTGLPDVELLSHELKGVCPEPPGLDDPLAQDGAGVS
# testProtocol: Adenosine antagonistic activity, radioligand binding with [3H]CGS 21680
# measurementConditions: [3H]CGS 21680 20 nM
attributeMeasured: Ki (nM)

                                smilesentry  attributemeasured  unitlabel  assayresult
0     CC(C)n1nc(-c2cnc(N)nc2-c2ccco2)ccc1=O                 Ki         nM         1.38
1       CCn1nc(-c2cnc(N)nc2-c2ccccc2)ccc1=O                 Ki         nM         4.35
2    Nc1ncc(-c2ccc(=O)[nH]n2)c(-c2ccccc2)n1                 Ki         nM         3.85
3  CC(C)n1nc(-c2cnc(NCc3ccccn3)nc2-c2ccccc2)ccc1=O                 Ki         nM         7.38
4  CC(=O)Nc1ncc(-c2ccc(=O)n(C(C)C)n2)c(-c2ccccc2)n1                 Ki         nM         2.09
5  COCCOc1ccc(-c2nc(N)ncc2-c2ccc(=O)n(C(C)C)n2)cc1                 Ki         nM          1.7
6  CC(C)n1nc(-c2c(F)nc(N)nc2-c2ccccc2)ccc1=O                 Ki         nM         1.41
